Biological target: T1, HMGB1 A box (termed HMGB1) (UniProt P09429 9-78)
T1 sequence: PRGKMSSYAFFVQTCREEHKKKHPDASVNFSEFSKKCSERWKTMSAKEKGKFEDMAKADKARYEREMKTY
Assay: fluorescence titration; 20 mM K+; K+-containing buffer; 20 or 200 mM K+ in Fig S9 titrations (10 uM HMGB1); full buffer, pH and temperature of binding assays not in material (phase-separation assays: 10 mM HEPES pH 7.4, 20 mM K+, 10% PEG8K)
Conditions: protein: recombinant; intramolecular parallel G4, K+
endpoint.label: pKd
# pKd: negative log10 of molar concentration; output just the value

-- ask Fill blank: measured pKd of the binder AGGGCGGTGTGGGAAGAGGGAA (structured_DNA) [22R (GQKRAS)] is ____.
-- reply 5.49

Origin of the recorded values: paper PMC10783520
